Data origin: paper PMC10820264

target: Human erythrocyte AChE (Homo sapiens, UniProt P22303); experiment: biochemical; type: biochemical
Sequence (P22303 other isoform, or with tags, fused parts or gaps): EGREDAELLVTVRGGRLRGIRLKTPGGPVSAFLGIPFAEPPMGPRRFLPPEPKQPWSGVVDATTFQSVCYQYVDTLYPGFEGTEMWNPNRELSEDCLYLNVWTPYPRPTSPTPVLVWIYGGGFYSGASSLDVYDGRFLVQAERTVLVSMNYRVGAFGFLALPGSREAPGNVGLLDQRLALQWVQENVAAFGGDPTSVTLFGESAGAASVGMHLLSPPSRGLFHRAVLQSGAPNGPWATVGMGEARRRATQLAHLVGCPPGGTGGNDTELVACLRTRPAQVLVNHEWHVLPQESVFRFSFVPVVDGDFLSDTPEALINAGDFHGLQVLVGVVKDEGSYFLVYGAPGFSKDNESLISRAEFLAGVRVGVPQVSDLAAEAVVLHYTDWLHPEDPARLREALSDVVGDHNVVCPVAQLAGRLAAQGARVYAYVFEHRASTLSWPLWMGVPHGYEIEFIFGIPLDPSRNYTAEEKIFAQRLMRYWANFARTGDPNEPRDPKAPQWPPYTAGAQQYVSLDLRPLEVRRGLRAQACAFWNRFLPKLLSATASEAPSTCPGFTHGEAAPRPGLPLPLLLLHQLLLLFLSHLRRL
pIC50: −log10 of the molar value.
# if value of pIC50 reaches 7, tag yes (1); if it stays below, tag no (0)

Completed entries (count: 5):
{"columns": ["Compound", "Study target", "Assigned class"],
 "data": [
  ["CC(C)(C)c1cc(CNCCNc2c3c(nc4ccccc24)CCCC3)cc(C(C)(C)C)c1O [17a]", "Human erythrocyte AChE (Homo sapiens, UniProt P22303)", "no (0)"],
  ["CC(C)(C)c1cc(C=NCCCCNc2c3c(nc4ccccc24)CCC3)cc(C(C)(C)C)c1O [13b]", "Human erythrocyte AChE (Homo sapiens, UniProt P22303)", "no (0)"],
  ["CC(C)(C)c1cc(CNCCCCNc2c3c(nc4ccccc24)CCCCC3)cc(C(C)(C)C)c1O [18b]", "Human erythrocyte AChE (Homo sapiens, UniProt P22303)", "no (0)"],
  ["CC(C)(C)c1cc(C=NCCCCCCCCNc2c3c(nc4ccccc24)CCCC3)cc(C(C)(C)C)c1O [14d]", "Human erythrocyte AChE (Homo sapiens, UniProt P22303)", "yes (1)"],
  ["CC(C)(C)c1cc(C=NCCCCCCCCNc2c3c(nc4ccccc24)CCCCC3)cc(C(C)(C)C)c1O [15d]", "Human erythrocyte AChE (Homo sapiens, UniProt P22303)", "yes (1)"]
]}

Let us examine a further case.
Please indicate if the recorded pIC50 for CC(C)(C)c1cc(C=NCCCCNc2c3c(nc4ccccc24)CCCC3)cc(C(C)(C)C)c1O [14b] meets or exceeds 7.
no (0)

----------
Recorded AChE αKi (non-competitive inhibition constant), one value per entry.
target: AChE (Homo sapiens); experiment: biochemical; type: biochemical
Sequence (P22303 other isoform, or with tags, fused parts or gaps): as above
Field: value (include unit after the number)

Known results for compounds:
{"columns": ["Compound", "Study target", "Value observed"],
 "data": [
  ["CC(C)(C)c1cc(CNCCCCCCCCNc2c3c(nc4ccccc24)CCCCC3)cc(C(C)(C)C)c1O [18d]", "AChE (Homo sapiens)", "25.1 ± 0.2 nM"],
  ["CC(C)(C)c1cc(C=NCCCCCCNc2c3c(nc4ccccc24)CCCCC3)cc(C(C)(C)C)c1O [15c]", "AChE (Homo sapiens)", "108 ± 3 nM"],
  ["CC(C)(C)c1cc(C=NCCCCCCCCNc2c3c(nc4ccccc24)CCCCC3)cc(C(C)(C)C)c1O [15d]", "AChE (Homo sapiens)", "31.4 ± 2.4 nM"]
]}

Query compound follows.
Any idea what AChE αKi (non-competitive inhibition constant) was measured for CC(C)(C)c1cc(CNCCCCCCNc2c3c(nc4ccccc24)CCCCC3)cc(C(C)(C)C)c1O [18c] ?
101 ± 5 nM

----------
target: eqBChE (Equus caballus); test: biochemical; format: biochemical; conditions: read-out: eqBChE Ki (competitive inhibition constant)
Sequence (P81908 whole entry): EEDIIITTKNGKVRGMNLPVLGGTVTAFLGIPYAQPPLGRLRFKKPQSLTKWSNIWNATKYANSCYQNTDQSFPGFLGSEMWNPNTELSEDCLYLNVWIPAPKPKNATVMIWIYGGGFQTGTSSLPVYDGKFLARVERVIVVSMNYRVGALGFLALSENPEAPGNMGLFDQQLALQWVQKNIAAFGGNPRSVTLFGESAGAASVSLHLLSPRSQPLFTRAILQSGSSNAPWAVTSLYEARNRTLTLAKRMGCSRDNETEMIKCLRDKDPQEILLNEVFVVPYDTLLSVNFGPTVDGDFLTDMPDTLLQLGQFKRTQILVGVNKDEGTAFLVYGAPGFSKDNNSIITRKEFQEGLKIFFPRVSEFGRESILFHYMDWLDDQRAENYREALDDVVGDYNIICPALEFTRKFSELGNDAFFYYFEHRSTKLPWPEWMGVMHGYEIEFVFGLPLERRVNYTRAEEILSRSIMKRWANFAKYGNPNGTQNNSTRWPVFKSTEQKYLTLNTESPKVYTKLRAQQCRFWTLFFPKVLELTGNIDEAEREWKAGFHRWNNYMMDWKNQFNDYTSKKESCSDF
Recorded pKi, one value per entry.
Scale for pKi: -log10 of concentration given in mol/L; no unit attached.

Known results for compounds:
{"columns": ["Compound", "Value observed"],
 "data": [
  ["CC(C)(C)c1cc(CNCCCCCCCCNc2c3c(nc4ccccc24)CCCCC3)cc(C(C)(C)C)c1O [18d]", 8.37],
  ["CC(C)(C)c1cc(CNCCCCCCNc2c3c(nc4ccccc24)CCCCC3)cc(C(C)(C)C)c1O [18c]", 8.11]
]}

Any idea what pKi was measured for CC(C)(C)c1cc(C=NCCCCCCCCNc2c3c(nc4ccccc24)CCCCC3)cc(C(C)(C)C)c1O [15d] ?
8.31

Similarly, CC(C)(C)c1cc(C=NCCCCCCNc2c3c(nc4ccccc24)CCCCC3)cc(C(C)(C)C)c1O [15c] ?
8.29

----------
assay: Ferric-reducing antioxidant power (FRAP) assay; conditions: Trolox equivalents
Outcome measure: Ferric-Reducing Antioxidant Power TE
Number only, please.

Known results for compounds:
{"columns": ["Compound", "Ferric-Reducing Antioxidant Power TE"],
 "data": [
  ["CC(C)(C)c1cc(C=NCCCCCCNc2c3c(nc4ccccc24)CCC3)cc(C(C)(C)C)c1O [13c]", 0.59],
  ["CC(C)(C)c1cc(CNCCCCCCNc2c3c(nc4ccccc24)CCC3)cc(C(C)(C)C)c1O [16c]", 0.51],
  ["CC(C)(C)c1cc(CNCCCCCCCCNc2c3c(nc4ccccc24)CCCC3)cc(C(C)(C)C)c1O [17d]", 0.57],
  ["CC(C)(C)c1cc(CNCCNc2c3c(nc4ccccc24)CCCC3)cc(C(C)(C)C)c1O [17a]", 0.52],
  ["CC(C)(C)c1cc(C=NCCCCCCNc2c3c(nc4ccccc24)CCCC3)cc(C(C)(C)C)c1O [14c]", 0.71]
]}

Any idea what Ferric-Reducing Antioxidant Power TE was measured for CC(C)(C)c1cc(CNCCCCCCNc2c3c(nc4ccccc24)CCCCC3)cc(C(C)(C)C)c1O [18c] ?
0.43

Similarly, CC(C)(C)c1cc(CNCCNc2c3c(nc4ccccc24)CCC3)cc(C(C)(C)C)c1O [16a] ?
0.57

Similarly, CC(C)(C)c1cc(C=NCCCCCCCCNc2c3c(nc4ccccc24)CCC3)cc(C(C)(C)C)c1O [13d] ?
0.71

----------
test: ABTS radical cation scavenging assay; settings: Trolox equivalents
Outcome measure: ABTS•+-Scavenging Activity TEAC
Number only, please.

Known results for compounds:
{"columns": ["Compound", "Value observed"],
 "data": [
  ["CC(C)(C)c1cc(CNCCCCNc2c3c(nc4ccccc24)CCC3)cc(C(C)(C)C)c1O [16b]", 0.90],
  ["Cc1cc(C(C)(C)C)c(O)c(C(C)(C)C)c1 [BHT, butylated hydroxytoluene, reference compound]", 0.98],
  ["CC(C)(C)c1cc(C=NCCCCCCCCNc2c3c(nc4ccccc24)CCC3)cc(C(C)(C)C)c1O [13d]", 0.85],
  ["Cc1c(C)c2c(c(C)c1O)CCC(C)(C(=O)O)O2 (stereo not shown) [Trolox, reference compound]", 1.0]
]}

Any idea what ABTS•+-Scavenging Activity TEAC was measured for CC(C)(C)c1cc(CNCCCCCCNc2c3c(nc4ccccc24)CCCC3)cc(C(C)(C)C)c1O [17c] ?
1.32

Similarly, CC(C)(C)c1cc(CNCCCCCCCCNc2c3c(nc4ccccc24)CCC3)cc(C(C)(C)C)c1O [16d] ?
1.00

Similarly, CC(C)(C)c1cc(C=NCCCCCCCCNc2c3c(nc4ccccc24)CCCCC3)cc(C(C)(C)C)c1O [15d] ?
1.00

----------
experiment: ABTS radical cation scavenging assay; conditions: Trolox equivalents
Outcome measure: ABTS•+-Scavenging Activity TEAC
Number only, please.

Known results for compounds:
{"columns": ["Compound", "ABTS•+-Scavenging Activity TEAC"],
 "data": [
  ["CC(C)(C)c1cc(C=NCCCCNc2c3c(nc4ccccc24)CCCCC3)cc(C(C)(C)C)c1O [15b]", 0.89],
  ["CC(C)(C)c1cc(CNCCCCCCNc2c3c(nc4ccccc24)CCCCC3)cc(C(C)(C)C)c1O [18c]", 1.00],
  ["CC(C)(C)c1cc(C=NCCCCCCNc2c3c(nc4ccccc24)CCC3)cc(C(C)(C)C)c1O [13c]", 0.98],
  ["CC(C)(C)c1cc(CNCCNc2c3c(nc4ccccc24)CCCC3)cc(C(C)(C)C)c1O [17a]", 1.20],
  ["CC(C)(C)c1cc(C=NCCCCNc2c3c(nc4ccccc24)CCC3)cc(C(C)(C)C)c1O [13b]", 0.78],
  ["CC(C)(C)c1cc(C=NCCCCCCNc2c3c(nc4ccccc24)CCCCC3)cc(C(C)(C)C)c1O [15c]", 0.90],
  ["CC(C)(C)c1cc(C=NCCCCCCCCNc2c3c(nc4ccccc24)CCCC3)cc(C(C)(C)C)c1O [14d]", 1.06]
]}

Query compound follows.
Any idea what ABTS•+-Scavenging Activity TEAC was measured for CC(C)(C)c1cc(C=NCCCCCCNc2c3c(nc4ccccc24)CCCC3)cc(C(C)(C)C)c1O [14c] ?
1.10

----------
target: peripheral anionic site of Electrophorus electricus AChE (EeAChE) (Electrophorus electricus, UniProt O42275); type: binding;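 note: compounds tested at 20 µM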
Sequence (O42275 24-633): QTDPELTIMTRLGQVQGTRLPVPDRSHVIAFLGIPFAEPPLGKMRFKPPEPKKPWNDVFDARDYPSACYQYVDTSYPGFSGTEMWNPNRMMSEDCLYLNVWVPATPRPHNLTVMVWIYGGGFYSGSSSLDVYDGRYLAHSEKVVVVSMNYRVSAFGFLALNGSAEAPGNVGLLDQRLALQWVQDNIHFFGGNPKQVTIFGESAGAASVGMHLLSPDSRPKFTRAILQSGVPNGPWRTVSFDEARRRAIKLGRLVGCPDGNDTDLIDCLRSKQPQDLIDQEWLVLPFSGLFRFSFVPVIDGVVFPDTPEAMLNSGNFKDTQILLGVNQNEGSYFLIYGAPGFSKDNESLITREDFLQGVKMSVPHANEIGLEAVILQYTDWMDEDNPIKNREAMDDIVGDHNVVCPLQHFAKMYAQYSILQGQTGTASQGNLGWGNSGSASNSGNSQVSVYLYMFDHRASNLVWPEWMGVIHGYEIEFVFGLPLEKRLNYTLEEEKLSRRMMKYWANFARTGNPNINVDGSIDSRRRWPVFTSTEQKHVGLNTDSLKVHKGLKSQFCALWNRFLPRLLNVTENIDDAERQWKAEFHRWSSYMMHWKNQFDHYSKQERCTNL
Outcome measure: Propidium Displacement (%)
Please give a number only; it is taken to be in %.

{"columns": ["Molecule", "Units symbol", "Propidium Displacement"],
 "data": [
  ["CC(C)(C)c1cc(CNCCCCNc2c3c(nc4ccccc24)CCCC3)cc(C(C)(C)C)c1O [17b]", "%", 15.4],
  ["CC(C)(C)c1cc(CNCCCCCCCCNc2c3c(nc4ccccc24)CCCC3)cc(C(C)(C)C)c1O [17d]", "%", 13.4]
]}

Any idea what Propidium Displacement was measured for CC(C)(C)c1cc(C=NCCCCCCCCNc2c3c(nc4ccccc24)CCCCC3)cc(C(C)(C)C)c1O [15d] ?
14.9

Similarly, CC(C)(C)c1cc(CNCCNc2c3c(nc4ccccc24)CCCC3)cc(C(C)(C)C)c1O [17a] ?
13.4
